Target: T1, 4H3629-AA
T1 chain: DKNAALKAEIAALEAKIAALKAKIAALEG
Assay: two-hybrid library CCmax;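 also: natural log of median RNA to DNA barcode read ratio; higher means stronger binding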
Settings: mean of both orientations
attribute measured: interaction score
Answer with a number only.

Which interaction score value is on record for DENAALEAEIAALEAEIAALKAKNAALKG [4H1040-AA] ?
1.28

Which interaction score value is on record for DENAALEAKNAALEAKIAALKAKIAALKG [4H1454-AA] ?
-1.38

Which interaction score value is on record for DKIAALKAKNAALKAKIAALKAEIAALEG [4H3049-AA] ?
-0.842

Which interaction score value is on record for DKIAALKAENAALKAEIAALEAKNAALKG [4H2760-AA] ?
-1.14

Which interaction score value is on record for DENAALKAEIAALEAKNAALKAEIAALEG [4H1593-AA] ?
-0.594

Which interaction score value is on record for DEIAALEAENAALEAEIAALEAEIAALKG [4H130-AA] ?
0.896

Which interaction score value is on record for DENAALEAKNAALEAKIAALKAEIAALEG [4H1449-AA] ?
-0.319

Which interaction score value is on record for DENAALEAKIAALKAEIAALKAKNAALKG [4H1360-AA] ?
0.958
